# Assay System: HLA-B*51:01
# Assay Protocol: IEDB peptide-MHC binding, purified MHC/direct/fluorescence; filed as Kd, often an IC50 or EC50 that approximates it; bounds were set here for any values at or beyond the usual limits of such assays
# Test Conditions: source organism: Helicobacter pylori
Reported Metric: pKd
Scale: negative log10 of molar concentration, which is what pKd denotes.

Request: Could you tell me which pKd is on file for "FPIQDFPII" ?
Response: 6.81

###

# Assay System: HLA-B*57:01
# Assay Protocol: IEDB peptide-MHC binding, purified MHC/direct/fluorescence; filed as Kd, often an IC50 or EC50 that approximates it; bounds were set here for any values at or beyond the usual limits of such assays
# Test Conditions: source organism: Salmonella enterica subsp. enterica serovar Typhimurium
Reported Metric: Kd

Request: Observed Kd on HLA-B*57:01 for "LAMLVLHQV" , please.
Response: ≥ 20 µM

###

For each record, write down the corresponding Kd.
# Assay System: HLA-A*33:01
# Assay Protocol: IEDB peptide-MHC binding, purified MHC/competitive/radioactivity; filed as Kd, often an IC50 or EC50 that approximates it; bounds were set here for any values at or beyond the usual limits of such assays
# Test Conditions: source organism: Mammarenavirus guanaritoense

Request: Could you tell me which Kd is on file for "CCNWLDRCR" ?
Response: ≥ 56.8 µM

Request: Could you tell me which Kd is on file for "FFTTSLFLH" ?
Response: ≥ 77.7 µM

###

# Assay System: HLA-B*15:01
# Assay Protocol: IEDB peptide-MHC binding, purified MHC/competitive/radioactivity; filed as Kd, often an IC50 or EC50 that approximates it; bounds were set here for any values at or beyond the usual limits of such assays
# Test Conditions: source organism: Dengue virus 4 Philippines/H241/1956
Reported Metric: Kd (nM)
Give the value, in units of nM, as a plain number.

Request: Observed Kd on HLA-B*15:01 for "RAKGSRAIWY" , please.
Response: 36.1

Request: Observed Kd on HLA-B*15:01 for "IVIGVGDSAL" , please.
Response: 27.8

Request: Observed Kd on HLA-B*15:01 for "LLMRTTWAF" , please.
Response: 1.08

Request: Observed Kd on HLA-B*15:01 for "LQRKHGGSL" , please.
Response: 26.2

###

# Assay System: HLA-B*18:01
# Assay Protocol: IEDB peptide-MHC binding, purified MHC/competitive/fluorescence; filed as Kd, often an IC50 or EC50 that approximates it; bounds were set here for any values at or beyond the usual limits of such assays
# Test Conditions: source organism: Zaire ebolavirus
pKd: −log10 of the molar value.
For each record, write down the corresponding pKd.

Request: Could you tell me which pKd is on file for "LTDRELLLL" ?
Response: ≤ 4.70

Request: Could you tell me which pKd is on file for "WLQKIPLQW" ?
Response: ≤ 4.70

Request: Could you tell me which pKd is on file for "VLYHRYNLV" ?
Response: ≤ 4.70

###

# Assay System: HLA-B*48:01
# Assay Protocol: IEDB peptide-MHC binding, purified MHC/direct/fluorescence; filed as Kd, often an IC50 or EC50 that approximates it; bounds were set here for any values at or beyond the usual limits of such assays
# Test Conditions: source organism: Ebola virus - Gabon (1994-1997)
Reported Metric: Kd

Request: Could you tell me which Kd is on file for "YFTFDLTAL" ?
Response: ≥ 20 µM

###

# Assay System: HLA-A*02:11
# Assay Protocol: IEDB peptide-MHC binding, purified MHC/direct/fluorescence; filed as Kd, often an IC50 or EC50 that approximates it; bounds were set here for any values at or beyond the usual limits of such assays
# Test Conditions: source organism: Orthohantavirus andesense
Reported Metric: Kd

Request: Could you tell me which Kd is on file for "LEEDIQHFL" ?
Response: ≥ 20 µM

###

# Assay System: HLA-A*24:03
# Assay Protocol: IEDB peptide-MHC binding, purified MHC/direct/fluorescence; filed as Kd, often an IC50 or EC50 that approximates it; bounds were set here for any values at or beyond the usual limits of such assays
# Test Conditions: source organism: Salmonella enterica subsp. enterica serovar Typhimurium
pKd: −log10 of the molar value.
Reported Metric: pKd

Request: Observed pKd on HLA-A*24:03 for "LAMLVLHQV" , please.
Response: ≤ 4.70

###

# Assay System: HLA-A*33:01
# Assay Protocol: IEDB peptide-MHC binding, purified MHC/competitive/radioactivity; filed as Kd, often an IC50 or EC50 that approximates it; bounds were set here for any values at or beyond the usual limits of such assays
# Test Conditions: source organism: Dengue virus 2 Jamaica/1409/1983
Reported Metric: pKd
Scale: negative log10 of molar concentration, which is what pKd denotes.

Request: Could you tell me which pKd is on file for "TTNIWLKLR" ?
Response: 8.14

Request: Could you tell me which pKd is on file for "NMLKRERNR" ?
Response: 7.10

Request: Could you tell me which pKd is on file for "TMRCIGISNR" ?
Response: 7.85

Request: Could you tell me which pKd is on file for "TFAAGLLLR" ?
Response: 7.17

###

# Assay System: HLA-A*03:01
# Assay Protocol: IEDB peptide-MHC binding, purified MHC/direct/fluorescence; filed as Kd, often an IC50 or EC50 that approximates it; bounds were set here for any values at or beyond the usual limits of such assays
# Test Conditions: source organism: Influenza A virus (A/Duck/Shantou/2088/01(H9N2))
pKd: −log10 of the molar value.
Reported Metric: pKd

Request: Could you tell me which pKd is on file for "EEMATKADY" ?
Response: ≤ 4.70

###

# Assay System: HLA-B*15:02
# Assay Protocol: IEDB peptide-MHC binding, purified MHC/direct/fluorescence; filed as Kd, often an IC50 or EC50 that approximates it; bounds were set here for any values at or beyond the usual limits of such assays
# Test Conditions: source organism: Burkholderia mallei ATCC 23344
Reported Metric: pKd
Scale: negative log10 of molar concentration, which is what pKd denotes.

Request: Could you tell me which pKd is on file for "MMYASWGVH" ?
Response: 8.52

###

# Assay System: HLA-B*15:17
# Assay Protocol: IEDB peptide-MHC binding, purified MHC/direct/fluorescence; filed as Kd, often an IC50 or EC50 that approximates it; bounds were set here for any values at or beyond the usual limits of such assays
# Test Conditions: source organism: dengue virus type 4
Reported Metric: pKd
Scale: negative log10 of molar concentration, which is what pKd denotes.

Request: Could you tell me which pKd is on file for "KAYAQMWSL" ?
Response: 8.89

###

# Assay System: HLA-A*01:01
# Assay Protocol: IEDB peptide-MHC binding, purified MHC/competitive/fluorescence; filed as Kd, often an IC50 or EC50 that approximates it; bounds were set here for any values at or beyond the usual limits of such assays
# Test Conditions: source organism: Shigella boydii CDC 3083-94
Reported Metric: pKd
Scale: negative log10 of molar concentration, which is what pKd denotes.

Request: Observed pKd on HLA-A*01:01 for "HSETVIHRY" , please.
Response: 7.84

###

# Assay System: HLA-A*02:01
# Assay Protocol: IEDB peptide-MHC binding, purified MHC/direct/fluorescence; filed as Kd, often an IC50 or EC50 that approximates it; bounds were set here for any values at or beyond the usual limits of such assays
# Test Conditions: source organism: Influenza A virus (A/Jiangsu/38/2004(H3N2))
Reported Metric: Kd (nM)
Give the value, in units of nM, as a plain number.

Request: Observed Kd on HLA-A*02:01 for "ILDGENCTL" , please.
Response: 37.8

###

# Assay System: HLA-A*11:01
# Assay Protocol: IEDB peptide-MHC binding, purified MHC/competitive/radioactivity; filed as Kd, often an IC50 or EC50 that approximates it; bounds were set here for any values at or beyond the usual limits of such assays
# Test Conditions: source organism: Mammarenavirus mopeiaense
Reported Metric: pKd
Scale: negative log10 of molar concentration, which is what pKd denotes.

Request: Could you tell me which pKd is on file for "KCFGNTAIAK" ?
Response: 5.13

###

# Assay System: HLA-B*15:42
# Assay Protocol: IEDB peptide-MHC binding, purified MHC/competitive/fluorescence; filed as Kd, often an IC50 or EC50 that approximates it; bounds were set here for any values at or beyond the usual limits of such assays
# Test Conditions: source organism: Zaire ebolavirus
Reported Metric: Kd

Request: Could you tell me which Kd is on file for "VLYHRYNLV" ?
Response: ≥ 5 µM

###

# Assay System: HLA-B*58:01
# Assay Protocol: IEDB peptide-MHC binding, purified MHC/direct/fluorescence; filed as Kd, often an IC50 or EC50 that approximates it; bounds were set here for any values at or beyond the usual limits of such assays
# Test Conditions: source organism: Influenza A virus (A/Ck/HK/2133.1/2003(H5N1))
Reported Metric: Kd

Request: Could you tell me which Kd is on file for "SADPLASLL" ?
Response: ≥ 20 µM
